# Test system: 171881-019-R-J1-PDC complex spheroid viability
# protocol-notes: Anticancer human tumor 171881-019-R-J1-PDC patient-derived invasive breast carcinoma cell line growth inhibition
# measurement-context: second compound 0.316 µM; first compound 0.003 µM; active compounds read low
Mark criterion met for viability, T/C under 60%, criterion not met if at or over.

Query :: Please determine if Nc1ncn(C2CC(O)C(CO)S2)c(=O)n1 (stereo unspecified) + NC1CCC(NC2CC2c2ccccc2)CC1 is below 60% in terms of viability, T/C.
Result :: criterion not met

Query :: Please determine if CCc1c2c(nc3ccc(O)cc13)-c1cc3c(c(=O)n1C2)COC(=O)[C@]3(O)CC + NC1CCC(NC2CC2c2ccccc2)CC1 is below 60% in terms of viability, T/C.
Result :: criterion met

Query :: Please determine if CCc1c2c(nc3ccc(O)cc13)-c1cc3c(c(=O)n1C2)COC(=O)[C@]3(O)CC + NC1CC1c1ccc(-c2cccc(O)c2)cc1 is below 60% in terms of viability, T/C.
Result :: criterion met

Query :: Please determine if Nc1ccn(C2OC(CO)C(O)C2(F)F)c(=O)n1 (stereo unspecified) + NC1CC1c1ccc(-c2cccc(O)c2)cc1 is below 60% in terms of viability, T/C.
Result :: criterion not met

Query :: Please determine if Nc1ncn(C2CC(O)C(CO)S2)c(=O)n1 (stereo unspecified) + NC1CC1c1ccc(-c2cccc(O)c2)cc1 is below 60% in terms of viability, T/C.
Result :: criterion not met

Query :: Please determine if Nc1ccn(C2OC(CO)C(O)C2(F)F)c(=O)n1 (stereo unspecified) + NC1CCC(NC2CC2c2ccccc2)CC1 is below 60% in terms of viability, T/C.
Result :: criterion met

###

# Tested on: 171881-019-R-J1-PDC complex spheroid viability
# protocol-notes: Anticancer human tumor 171881-019-R-J1-PDC cell line growth inhibition;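 also: spheroids exposed to agents for 7 days after 3 days growth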
# measurement-context: second compound 0.316 µM; first compound 0.001 µM; active compounds read low
# From the text: Multicellular complex tumor spheroid response to LSD1 Inhibitor Iadademstat in combination with a variety of drugs and investigational agents in selected tumor cell lines The current study was undertaken to assess response to LSD1 inhibitors in combination with standard-of-care drugs and investigational agents in solid tumor complex spheroid models as well as in the K-562 leukemia. […] Compounds. […] If the clinical Cmax for an agent had not been determined, the highest concentration tested was 10 microM. […]
Mark met for viability, T/C under 80%, not met if at or over.

Query :: Please determine if CC[C@@]1(O)C(=O)OCc2c1cc1n(c2=O)Cc2cc3c(CN(C)C)c(O)ccc3nc2-1 + NC1CCC(NC2CC2c2ccccc2)CC1 is below 80% in terms of viability, T/C.
Result :: not met

Query :: Please determine if Cn1ncnc1C1c2n[nH]c(=O)c3cc(F)cc(c23)NC1c1ccc(F)cc1 (stereo not drawn) + NC1CC1c1ccc(-c2cccc(O)c2)cc1 is below 80% in terms of viability, T/C.
Result :: not met

Query :: Please determine if CC(C)CC(NC(=O)C(Cc1ccccc1)NC(=O)c1cnccn1)B(O)O (stereo not drawn) + NC1CC1c1ccc(-c2cccc(O)c2)cc1 is below 80% in terms of viability, T/C.
Result :: met

Query :: Please determine if Cn1ncnc1C1c2n[nH]c(=O)c3cc(F)cc(c23)NC1c1ccc(F)cc1 (stereo not drawn) + NC1CCC(NC2CC2c2ccccc2)CC1 is below 80% in terms of viability, T/C.
Result :: met

Query :: Please determine if CC(C)CC(NC(=O)CNC(=O)c1cc(Cl)ccc1Cl)B1OC(=O)CC(CC(=O)O)(C(=O)O)O1 (stereo not drawn) + NC1CCC(NC2CC2c2ccccc2)CC1 is below 80% in terms of viability, T/C.
Result :: not met

Query :: Please determine if CC(C)CC(NC(=O)C(Cc1ccccc1)NC(=O)c1cnccn1)B(O)O (stereo not drawn) + NC1CCC(NC2CC2c2ccccc2)CC1 is below 80% in terms of viability, T/C.
Result :: met

Query :: Please determine if CC(C)CC(NC(=O)CNC(=O)c1cc(Cl)ccc1Cl)B1OC(=O)CC(CC(=O)O)(C(=O)O)O1 (stereo not drawn) + NC1CC1c1ccc(-c2cccc(O)c2)cc1 is below 80% in terms of viability, T/C.
Result :: met

Query :: Please determine if CC[C@@]1(O)C(=O)OCc2c1cc1n(c2=O)Cc2cc3c(CN(C)C)c(O)ccc3nc2-1 + NC1CC1c1ccc(-c2cccc(O)c2)cc1 is below 80% in terms of viability, T/C.
Result :: not met

###

# System: 171881-019-R-J1-PDC complex spheroid viability
# protocol-notes: Anticancer human tumor 171881-019-R-J1-PDC cell line growth inhibition;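 also: spheroids exposed to agents for 7 days after 3 days growth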
# measurement-context: second compound 0.316 µM; first compound 0.949 µM; active compounds read low
assay-endpoint: viability, T/C (%)
Numbers only; they are read as %.

Query :: Recorded viability, T/C for NS(=O)(=O)OCC1CC(n2ccc3c(NC4CCc5ccccc54)ncnc32)CC1O (stereo not given) + NC1CC1c1ccc(-c2cccc(O)c2)cc1 , please?
Result :: 31.8

Query :: Recorded viability, T/C for COc1cc(C2c3cc4c(cc3C(OC3OC5COC(C)OC5C(O)C3O)C3COC(=O)C23)OCO4)cc(OC)c1O (stereo not given) + NC1CCC(NC2CC2c2ccccc2)CC1 , please?
Result :: 33.1

Query :: Recorded viability, T/C for Nc1ccccc1NC(=O)c1ccc(CNC(=O)OCc2cccnc2)cc1 + NC1CCC(NC2CC2c2ccccc2)CC1 , please?
Result :: 2.42

Query :: Recorded viability, T/C for CCN(c1cc(-c2ccc(CN3CCOCC3)cc2)cc(C(=O)NCc2c(C)cc(C)[nH]c2=O)c1C)C1CCOCC1 + NC1CC1c1ccc(-c2cccc(O)c2)cc1 , please?
Result :: 66.8

Query :: Recorded viability, T/C for NS(=O)(=O)OCC1CC(n2ccc3c(NC4CCc5ccccc54)ncnc32)CC1O (stereo not given) + NC1CCC(NC2CC2c2ccccc2)CC1 , please?
Result :: 27.3

Query :: Recorded viability, T/C for CCN(c1cc(-c2ccc(CN3CCOCC3)cc2)cc(C(=O)NCc2c(C)cc(C)[nH]c2=O)c1C)C1CCOCC1 + NC1CCC(NC2CC2c2ccccc2)CC1 , please?
Result :: 76.6

Query :: Recorded viability, T/C for O=C(C=Cc1cccc(S(=O)(=O)Nc2ccccc2)c1)NO + NC1CCC(NC2CC2c2ccccc2)CC1 , please?
Result :: 5.13

Query :: Recorded viability, T/C for O=C(C=Cc1cccc(S(=O)(=O)Nc2ccccc2)c1)NO + NC1CC1c1ccc(-c2cccc(O)c2)cc1 , please?
Result :: 1.15

Query :: Recorded viability, T/C for Nc1ccccc1NC(=O)c1ccc(CNC(=O)OCc2cccnc2)cc1 + NC1CC1c1ccc(-c2cccc(O)c2)cc1 , please?
Result :: 8.21

Query :: Recorded viability, T/C for COc1cc(C2c3cc4c(cc3C(OC3OC5COC(C)OC5C(O)C3O)C3COC(=O)C23)OCO4)cc(OC)c1O (stereo not given) + NC1CC1c1ccc(-c2cccc(O)c2)cc1 , please?
Result :: 51.4

###

# System: 171881-019-R-J1-PDC complex spheroid viability
# protocol-notes: Anticancer human tumor 171881-019-R-J1-PDC cell line growth inhibition;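 also: spheroids exposed to agents for 7 days after 3 days growth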
# measurement-context: second compound 10 µM; first compound 1 µM; active compounds read low
Mark Condition met for viability, T/C under 80%, Condition not met if at or over.

Query :: Please determine if CC(C)c1c(-c2ccccc2)nc2c(C#N)c[nH]n2c1=O + NC1CCC(NC2CC2c2ccccc2)CC1 is below 80% in terms of viability, T/C.
Result :: Condition not met

Query :: Please determine if CC1COCCN1c1cc(-c2ccnn2C)c2ccnc(-c3ccn[nH]3)c2n1 (stereo not given) + NC1CC1c1ccc(-c2cccc(O)c2)cc1 is below 80% in terms of viability, T/C.
Result :: Condition met

Query :: Please determine if O=C(C=Cn1cnc(-c2cc(C(F)(F)F)cc(C(F)(F)F)c2)n1)NNc1cnccn1 + NC1CC1c1ccc(-c2cccc(O)c2)cc1 is below 80% in terms of viability, T/C.
Result :: Condition met

Query :: Please determine if COc1ccc([C@@H](O)c2cc(-c3ncnc4cc(N5CCOCC5)ccc34)c(F)cc2Cl)nn1 + NC1CCC(NC2CC2c2ccccc2)CC1 is below 80% in terms of viability, T/C.
Result :: Condition met

Query :: Please determine if CC1COCCN1c1cc(C2(S(C)(=N)=O)CC2)nc(-c2ccnc3[nH]ccc23)n1 (stereo not given) + NC1CCC(NC2CC2c2ccccc2)CC1 is below 80% in terms of viability, T/C.
Result :: Condition not met

###

# Tested on: 171881-019-R-J1-PDC complex spheroid viability
# protocol-notes: Anticancer human tumor 171881-019-R-J1-PDC cell line growth inhibition;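 also: spheroids exposed to agents for 7 days after 3 days growth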
# measurement-context: second compound 0.316 µM; first compound 0.316 µM; active compounds read low
assay-endpoint: viability, T/C (%)
Numbers only; they are read as %.

Query :: Recorded viability, T/C for COc1ccc([C@@H](O)c2cc(-c3ncnc4cc(N5CCOCC5)ccc34)c(F)cc2Cl)nn1 + NC1CCC(NC2CC2c2ccccc2)CC1 , please?
Result :: 112

Query :: Recorded viability, T/C for COc1cc(Nc2ncc3c(n2)-c2ccc(Cl)cc2C(c2c(F)cccc2OC)=NC3)ccc1C(=O)O + NC1CCC(NC2CC2c2ccccc2)CC1 , please?
Result :: 92.4

Query :: Recorded viability, T/C for COc1ccc([C@@H](O)c2cc(-c3ncnc4cc(N5CCOCC5)ccc34)c(F)cc2Cl)nn1 + NC1CC1c1ccc(-c2cccc(O)c2)cc1 , please?
Result :: 81.2

Query :: Recorded viability, T/C for CC(C)c1c(-c2ccccc2)nc2c(C#N)c[nH]n2c1=O + NC1CC1c1ccc(-c2cccc(O)c2)cc1 , please?
Result :: 95.8

Query :: Recorded viability, T/C for O=C(C=Cn1cnc(-c2cc(C(F)(F)F)cc(C(F)(F)F)c2)n1)NNc1cnccn1 + NC1CC1c1ccc(-c2cccc(O)c2)cc1 , please?
Result :: 2.08

Query :: Recorded viability, T/C for CC1COCCN1c1cc(-c2ccnn2C)c2ccnc(-c3ccn[nH]3)c2n1 (stereo unspecified) + NC1CC1c1ccc(-c2cccc(O)c2)cc1 , please?
Result :: 6.7

Query :: Recorded viability, T/C for CC1(C)CCC(CN2CCN(c3ccc(C(=O)NS(=O)(=O)c4ccc(NCC5CCOCC5)c([N+](=O)[O-])c4)c(Oc4cnc5[nH]ccc5c4)c3)CC2)=C(c2ccc(Cl)cc2)C1 + NC1CCC(NC2CC2c2ccccc2)CC1 , please?
Result :: 68.4

Query :: Recorded viability, T/C for Nc1ncn(C2CC(O)C(CO)O2)c(=O)n1 (stereo unspecified) + NC1CCC(NC2CC2c2ccccc2)CC1 , please?
Result :: 115

Query :: Recorded viability, T/C for O=C(c1cc(Cc2n[nH]c(=O)c3ccccc23)ccc1F)N1CCN(C(=O)C2CC2)CC1 + NC1CC1c1ccc(-c2cccc(O)c2)cc1 , please?
Result :: 101

Query :: Recorded viability, T/C for CC1COCCN1c1cc(C2(S(C)(=N)=O)CC2)nc(-c2ccnc3[nH]ccc23)n1 (stereo unspecified) + NC1CCC(NC2CC2c2ccccc2)CC1 , please?
Result :: 94.5

Query :: Recorded viability, T/C for CC1COCCN1c1cc(C2(S(C)(=N)=O)CC2)nc(-c2ccnc3[nH]ccc23)n1 (stereo unspecified) + NC1CC1c1ccc(-c2cccc(O)c2)cc1 , please?
Result :: 99.3
